FYI, the data here is from PubChem BioAssay AID463173.

For each entry below, report its survival value.
test system: Wild type; assay: S. aureus survival, RN4220 and DeltatarO strains – OD600, teichoic acid synthesis inhibitors, primary screen (AID 463173); settings: S. aureus RN4220 wild type/DeltatarO growth, OD600, 18 h, active compounds read low, screened at 18.75 µg/mL (by protocol)
Out of some 52,000 compounds screened, about 1,700 (3.3%) were called active. The sample as a whole holds a higher share of actives than the screen did.
Give bare numbers, in %.

Past entries and their recorded results:
| Molecule | Unit Annotation | survival |
| --- | --- | --- |
| CCNC(=O)C1CCN(Cc2cc3ccccc3n2Cc2ccc(C)cc2)CC1 | % | 85 |
| CCCCn1cc(S(=O)(=O)c2ccc(Cl)cc2)c(=O)c2cc(F)c(N3CCCCC3)cc21 | % | 105 |
| CCOC(=O)C1(C)C=C(Nc2cccc(C)c2)C(=O)N1c1ccccc1 (stereo not given) | % | 51 |
| CCc1nc(SCC(=O)O)c(C#N)cc1C | % | 96 |

Record survival per entry; entries follow.
1. COc1ccc2c(c1)c1c(c(=O)n(-c3ccccc3C)c(=O)n1C)n2C
2. Cc1ccc(S(=O)(=O)Cc2nc(-c3ccc(C(=O)NCCCOC(C)C)cc3)oc2C)cc1
3. Cc1oc(-c2ccc(C(=O)NCCCOC(C)C)cc2)nc1CS(=O)(=O)c1ccccc1
4. CCOCCCNC(=O)c1ccc(-c2nc(CS(=O)(=O)c3ccccc3)c(C)o2)cc1
5. COc1cc(C(c2nnnn2Cc2ccco2)N2CCN(C3CCCC3)CC2)cc(OC)c1OC (stereo not given)
6. CCOC(=O)C1CCC(CN(Cc2ccc(Cl)cc2)S(=O)(=O)c2cc(Cl)cc(Cl)c2)CC1 (stereo not given)

Response line:
[81, 75, -6, 87, 107, 59]
